Assay System: (α4)2(β2)3 (HS isoform) α4β2 nAChR (Homo sapiens, UniProt P17787+P43681)
Construct: expressed in transfected cells; host or cells: Xenopus laevis oocytes, nuclear injection of cDNA in plasmid pCI (10 α4 : 1 β2 for LS, 1 α4 : 10 β2 for HS)
Sequence (P43681 27-627): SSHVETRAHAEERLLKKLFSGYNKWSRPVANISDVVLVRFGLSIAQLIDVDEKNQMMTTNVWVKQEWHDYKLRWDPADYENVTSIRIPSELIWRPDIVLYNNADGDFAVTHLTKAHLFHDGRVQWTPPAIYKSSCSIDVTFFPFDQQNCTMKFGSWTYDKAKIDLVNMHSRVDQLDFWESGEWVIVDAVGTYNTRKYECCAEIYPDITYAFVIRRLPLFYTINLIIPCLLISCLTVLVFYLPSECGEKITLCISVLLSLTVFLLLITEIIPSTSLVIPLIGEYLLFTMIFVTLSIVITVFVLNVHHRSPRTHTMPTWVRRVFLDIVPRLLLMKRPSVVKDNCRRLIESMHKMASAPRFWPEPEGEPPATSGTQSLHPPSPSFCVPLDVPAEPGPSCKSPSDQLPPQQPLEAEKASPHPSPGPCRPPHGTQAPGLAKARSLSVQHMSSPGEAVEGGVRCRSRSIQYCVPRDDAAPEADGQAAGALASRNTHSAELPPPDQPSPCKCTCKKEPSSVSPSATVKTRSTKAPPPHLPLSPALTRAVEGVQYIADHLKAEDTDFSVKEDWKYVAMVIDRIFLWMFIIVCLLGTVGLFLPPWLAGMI
Sequence (P17787 26-502): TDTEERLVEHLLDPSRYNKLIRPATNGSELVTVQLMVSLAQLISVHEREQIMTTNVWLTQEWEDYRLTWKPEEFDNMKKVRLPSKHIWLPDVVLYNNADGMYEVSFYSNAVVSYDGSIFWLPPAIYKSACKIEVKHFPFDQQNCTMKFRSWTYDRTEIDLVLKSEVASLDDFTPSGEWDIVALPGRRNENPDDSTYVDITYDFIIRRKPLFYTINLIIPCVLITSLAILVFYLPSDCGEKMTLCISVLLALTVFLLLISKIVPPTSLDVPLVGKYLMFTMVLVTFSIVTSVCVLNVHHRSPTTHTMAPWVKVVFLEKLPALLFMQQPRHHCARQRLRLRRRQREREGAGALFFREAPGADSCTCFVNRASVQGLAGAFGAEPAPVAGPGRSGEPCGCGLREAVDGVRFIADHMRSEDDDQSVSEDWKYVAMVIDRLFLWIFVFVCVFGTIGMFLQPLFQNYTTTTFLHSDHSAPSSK
Assay Explanation: Inhibition of ACh EC80 current responses, Xenopus oocytes, HS isoform
Assay type: cell-based
Experimental Parameters: co-applied with ACh EC80 30 µM
Experimental Endpoint: IC50

Endpoint output: IC50 of `c1cnc2nc3c(nc2n1)C1CNCC3C1` . Value?
> 1000 µM

* * *

Assay System: (α4)3(β2)2 (LS isoform) α4β2 nAChR β2S133Vα4T139V (Homo sapiens, UniProt P17787+P43681, S133V/T139V)
Assay Explanation: Two-electrode voltage clamp, Xenopus oocytes, LS α4β2 nAChR β2S133Vα4T139V
Experimental Endpoint: pEC50
Convention used: pEC50 is expressed as -log10 of the molar concentration.

Endpoint output: pEC50 of O=c1cccc2n1C[C@@H]1CNC[C@H]2C1 [Cytisine 3, cytisine] . Value?
5.24

// provenance: paper PMC12711630
